Each recorded value in this set is attributed to ChEMBL document CHEMBL5625263.

STUDY SYSTEM: Protein kinase C theta type (Homo sapiens, UniProt Q04759)
Sequence (Q04759 whole entry): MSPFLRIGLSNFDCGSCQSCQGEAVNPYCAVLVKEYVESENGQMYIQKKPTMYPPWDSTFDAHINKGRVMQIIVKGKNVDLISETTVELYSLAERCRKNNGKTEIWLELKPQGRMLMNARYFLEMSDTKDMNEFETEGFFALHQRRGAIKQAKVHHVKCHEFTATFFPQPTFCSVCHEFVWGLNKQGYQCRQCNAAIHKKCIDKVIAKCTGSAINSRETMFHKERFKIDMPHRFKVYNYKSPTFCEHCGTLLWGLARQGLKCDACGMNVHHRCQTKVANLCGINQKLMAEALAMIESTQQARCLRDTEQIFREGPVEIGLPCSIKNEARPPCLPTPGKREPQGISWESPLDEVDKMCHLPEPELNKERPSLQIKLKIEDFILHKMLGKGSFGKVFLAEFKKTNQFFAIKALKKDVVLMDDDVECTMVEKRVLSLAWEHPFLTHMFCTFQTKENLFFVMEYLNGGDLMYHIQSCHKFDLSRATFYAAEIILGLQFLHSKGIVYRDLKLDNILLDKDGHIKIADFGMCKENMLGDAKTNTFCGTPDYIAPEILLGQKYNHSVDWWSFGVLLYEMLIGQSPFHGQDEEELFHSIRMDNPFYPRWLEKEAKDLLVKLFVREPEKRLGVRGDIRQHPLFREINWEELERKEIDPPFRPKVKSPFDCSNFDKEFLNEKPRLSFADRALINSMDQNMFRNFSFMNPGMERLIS
PROTOCOL DESCRIPTION: Inhibition of PKC theta (unknown origin) in presence of 1 mM ATP
ENDPOINT LABEL: IC50 (nM)
// note: answer is a bare numeric in nM

Value of measured IC50 for the entry CC1CCN2c3nc(ccc3C(=O)NC2(C)C)-n2c(=O)[nH]c3nccc(c32)O1 (configuration not stated) : 0.1

Value of measured IC50 for the entry CC1CCN(C)c2c(F)cnc3cc(F)c(nc23)-n2c(=O)[nH]c3nccc(c32)O1 (configuration not stated) : 1.2

Value of measured IC50 for the entry CC1CCCOc2cccc(n2)-n2c(=O)[nH]c3nccc(c32)O1 (configuration not stated) : 61

====

STUDY SYSTEM: Protein kinase C theta type (Homo sapiens, UniProt Q04759)
PROTOCOL DESCRIPTION: Inhibition of PKC theta (unknown origin) in presence of ATP at Km
For each entry below, report its pIC50 value.
API: returns pIC50 as number; meaning -log10 of concentration in mol/L.

Value of measured pIC50 for the entry CC1CCCn2ccc(=O)c3ccc(nc32)-n2c(=O)[nH]c3nccc(c32)O1 (stereo not given) : 8.92

Value of measured pIC50 for the entry `CN1CCN(c2nc(C3=C(c4c[nH]c5ccccc45)C(=O)NC3=O)c3ccccc3n2)CC1` : 9.15

====

For each entry below, report its IC50 value.
STUDY SYSTEM: Protein kinase C theta type (Homo sapiens)
PROTOCOL DESCRIPTION: Inhibition of PKC theta (unknown origin) in presence of 1 mM ATP

Value of measured IC50 for the entry CC1CCN(C)c2ccnc3cc(F)c(nc23)-n2c(=O)[nH]c3nccc(c32)O1 (centres undefined) : < 0.5 nM

Value of measured IC50 for the entry CC1CCCOc2ccnc3[nH]c(=O)n(c23)-c2ccc3c(=O)ccn1c3n2 (centres undefined) : < 0.5 nM

Value of measured IC50 for the entry CC1CCCOc2ccnc3[nH]c(=O)n(c23)-c2ccc3nccc1c3n2 (centres undefined) : < 0.5 nM

Value of measured IC50 for the entry CC1CCC(C)n2ccc(=O)c3cc(F)c(nc32)-n2c(=O)[nH]c3nccc(c32)O1 (centres undefined) : < 0.5 nM

====

For each entry below, report its pIC50 value.
STUDY SYSTEM: UniProtKB Q04759
PROTOCOL DESCRIPTION: Inhibition of PKC theta (unknown origin) in presence of ATP at Km
pIC50: −log10 of the molar value.

Note to self: pIC50 of CC1CCCOc2ccnc3[nH]c(=O)n(c23)-c2ccc3nccc1c3n2 (stereo not drawn) with UniProtKB Q04759 was > 9.30

Note to self: pIC50 of CC1CCC(C)c2ccnc3ccc(nc23)-n2c(=O)[nH]c3nccc(c32)O1 (stereo not drawn) with UniProtKB Q04759 was > 9.30

Note to self: pIC50 of CC1CCC(C)n2ccc(=O)c3ccc(nc32)-n2c(=O)[nH]c3nccc(c32)O1 (stereo not drawn) with UniProtKB Q04759 was > 9.30
